Test system: Saccharomyces cerevisiae
Assay: protein stability index of tFT-peptide fusion (C-terminal peptide) (PSI (0-1 scale)); higher = more stable (slower turnover)
Details: genetic background: wild type; temperature: 30 C
propertyName: protein stability index
Write the value as a bare number.

• EGEISKGAENAT [YDR444W C-terminal 12 aa] = 0.689
• RWHIQRITSPLS [STP22 C-terminal 12 aa] = 0.719
• YMKHLLECRSLW [PCD1 C-terminal 12 aa] = 0.694

[in] Report protein stability index, nothing else, for this sequence: INNTDITLYNDV [YPL068C C-terminal 12 aa]
[out] 0.696

[in] Report protein stability index, nothing else, for this sequence: PAAVFAETLKHD [RPL4B C-terminal 12 aa]
[out] 0.705

[in] Report protein stability index, nothing else, for this sequence: VTQILYTPIESS [SIP2 C-terminal 12 aa]
[out] 0.696

[in] Report protein stability index, nothing else, for this sequence: SLNQPELINFKS [IZH4 C-terminal 12 aa]
[out] 0.71

----------
Test system: Saccharomyces cerevisiae
Test: protein stability index of tFT-peptide fusion (C-terminal peptide) (PSI (0-1 scale)); higher = more stable (slower turnover)
Conditions: genetic background: wild type; temperature: 30 C
propertyName: protein stability index
Write the value as a bare number.

These recorded examples may help you get a feel for the data.
* RSLSLAPSFPLP | 0.697
* PPGGSRTEGRRT | 0.688
* LPPTHPPPPPAL | 0.7

[in] Report protein stability index, nothing else, for this sequence: VIACTFLSCSFS
[out] 0.531

[in] Report protein stability index, nothing else, for this sequence: VVLGLWGLCCGC
[out] 0.527

[in] Report protein stability index, nothing else, for this sequence: PPPPPSAPAPLH
[out] 0.696

[in] Report protein stability index, nothing else, for this sequence: DRGSSRFTIGPK
[out] 0.676

[in] Report protein stability index, nothing else, for this sequence: DSTGFRQNGQTD
[out] 0.73

----------
Tested on: Saccharomyces cerevisiae
Assay: protein stability index of tFT-peptide fusion (C-terminal peptide) (PSI (0-1 scale)); higher = more stable (slower turnover)
Conditions: genetic background: wild type; temperature: 30 C
propertyName: protein stability index
Write the value as a bare number.

• SPLSLPSIPFGV = 0.672
• PPRSPPSLPFPP = 0.634
• KRKKNKKRKQNE = 0.656
• LTGTVQPKLILP = 0.722
• LVFTDDGGVRSL = 0.609
• WPRVCPFSLYDA = 0.723

[in] Specify protein stability index for LIENVGDLETSR , system Saccharomyces cerevisiae.
[out] 0.665

[in] Specify protein stability index for FGGYLRAGVFLT , system Saccharomyces cerevisiae.
[out] 0.473

[in] Specify protein stability index for PPPPRPPFPRAF , system Saccharomyces cerevisiae.
[out] 0.698

----------
Entries annotated with measured protein stability index
Test system: Saccharomyces cerevisiae
Assay: protein stability index of tFT-peptide fusion (C-terminal peptide) (PSI (0-1 scale)); higher = more stable (slower turnover)
Settings: genetic background: das1 deletion; temperature: 30 C
Write the value as a bare number.

These recorded examples may help you get a feel for the data.
* KHTGTGNAPNCD | 0.649
* RTWFTYMSIPVW | 0.234

[in] Report protein stability index, nothing else, for this sequence: ILRIYIPRWRRQ
[out] 0.62

[in] Report protein stability index, nothing else, for this sequence: YPSCPINFICLC
[out] 0.585

[in] Report protein stability index, nothing else, for this sequence: ARGVAAAFVSGF
[out] 0.657

[in] Report protein stability index, nothing else, for this sequence: VRMVIFSSVYLT
[out] 0.362

----------
Tested on: Saccharomyces cerevisiae
Experiment: protein stability index of tFT-peptide fusion (C-terminal peptide) (PSI (0-1 scale)); higher = more stable (slower turnover)
Details: genetic background: wild type; temperature: 30 C
Entries annotated with measured protein stability index

These recorded examples may help you get a feel for the data.
- VVFLWGVFGGSI: 0.688
- CTICQLASKAIC: 0.599
- PPPPRPPPLPTR: 0.703

[in] Specify protein stability index for RQQSIIDNQIGQ , system Saccharomyces cerevisiae.
[out] 0.68

[in] Specify protein stability index for PTGSHARRRPRR , system Saccharomyces cerevisiae.
[out] 0.65

[in] Specify protein stability index for LACWAGVLGWGG , system Saccharomyces cerevisiae.
[out] 0.732

[in] Specify protein stability index for SIIATHNNNSIW , system Saccharomyces cerevisiae.
[out] 0.694

[in] Specify protein stability index for DSILCVPCVYLY , system Saccharomyces cerevisiae.
[out] 0.629

[in] Specify protein stability index for VGGMGAEGRGGK , system Saccharomyces cerevisiae.
[out] 0.721

[in] Specify protein stability index for PLPPPPPTSLPP , system Saccharomyces cerevisiae.
[out] 0.705

[in] Specify protein stability index for RTSPRSHVSRSL , system Saccharomyces cerevisiae.
[out] 0.79

[in] Specify protein stability index for ILCLAPLSCYPV , system Saccharomyces cerevisiae.
[out] 0.832

[in] Specify protein stability index for IMKQHNYIGFVF , system Saccharomyces cerevisiae.
[out] 0.608

[in] Specify protein stability index for PLSPPPPSPPRP , system Saccharomyces cerevisiae.
[out] 0.645

[in] Specify protein stability index for LQPRLLSIVPYN , system Saccharomyces cerevisiae.
[out] 0.635

[in] Specify protein stability index for YYPRGIYHNSMT , system Saccharomyces cerevisiae.
[out] 0.713

[in] Specify protein stability index for RNTKGRIKKKKE , system Saccharomyces cerevisiae.
[out] 0.728

----------
Tested on: Saccharomyces cerevisiae
Test: protein stability index of tFT-peptide fusion (C-terminal peptide) (PSI (0-1 scale)); higher = more stable (slower turnover)
Settings: genetic background: wild type; temperature: 30 C
propertyName: protein stability index
Write the value as a bare number.

- RVYTSAWAPDWR: 0.62
- SSSLCSSSLGGS: 0.605
- WILIGVRFSCFG: 0.299
- SVEKYDGGKGVV: 0.69
- HCSVSGLQLFMD: 0.699

[in] Report protein stability index, nothing else, for this sequence: FRLCQRPVFLLS
[out] 0.35

[in] Report protein stability index, nothing else, for this sequence: HPPPTSQPPPGP
[out] 0.726

[in] Report protein stability index, nothing else, for this sequence: SPLRSCPADPSQ
[out] 0.763

[in] Report protein stability index, nothing else, for this sequence: EAGVGSGGGRCG
[out] 0.673

[in] Report protein stability index, nothing else, for this sequence: GLVVWFFQSPHF
[out] 0.597

----------
Entries annotated with measured protein stability index
System: Saccharomyces cerevisiae
Test: protein stability index of tFT-peptide fusion (C-terminal peptide) (PSI (0-1 scale)); higher = more stable (slower turnover)
Details: genetic background: wild type; temperature: 30 C
Write the value as a bare number.

- SCRTTPQVRARA [YLR279W C-terminal 12 aa]: 0.695
- RKELEKGKKNSK [YLR363W-A C-terminal 12 aa]: 0.703
- FFFSNSFLPASR [YJL127W-A C-terminal 12 aa]: 0.788

[in] Specify protein stability index for HNGKNKNRNSKK [MPP6 C-terminal 12 aa] , system Saccharomyces cerevisiae.
[out] 0.669

[in] Specify protein stability index for EYMIERCRGHVL [YPL108W C-terminal 12 aa] , system Saccharomyces cerevisiae.
[out] 0.753

----------
Entries annotated with measured protein stability index
Test system: Saccharomyces cerevisiae
Assay: protein stability index of tFT-peptide fusion (C-terminal peptide) (PSI (0-1 scale)); higher = more stable (slower turnover)
Conditions: genetic background: wild type; temperature: 30 C
Write the value as a bare number.

[in] Specify protein stability index for TSPPHLPASSHS , system Saccharomyces cerevisiae.
[out] 0.689

[in] Specify protein stability index for PRSPPPPAQPFV , system Saccharomyces cerevisiae.
[out] 0.705

[in] Specify protein stability index for PVPPGYFLRSPP , system Saccharomyces cerevisiae.
[out] 0.701

[in] Specify protein stability index for APPPAYCPPPPP , system Saccharomyces cerevisiae.
[out] 0.713

----------
Test system: Saccharomyces cerevisiae
Assay: protein stability index of tFT-peptide fusion (C-terminal peptide) (PSI (0-1 scale)); higher = more stable (slower turnover)
Settings: genetic background: wild type; temperature: 30 C
propertyName: protein stability index
Write the value as a bare number.

These recorded examples may help you get a feel for the data.
- CPGGRKPRQTAG: 0.679
- ARNDAGKRERVT: 0.696
- GSSKVKEGNACR: 0.694

[in] Specify protein stability index for KKKNKKEDKRKK , system Saccharomyces cerevisiae.
[out] 0.694

[in] Specify protein stability index for CTSCDVFVFCPF , system Saccharomyces cerevisiae.
[out] 0.708

----------
Test system: Saccharomyces cerevisiae
Assay: protein stability index of tFT-peptide fusion (C-terminal peptide) (PSI (0-1 scale)); higher = more stable (slower turnover)
Settings: genetic background: das1 deletion; temperature: 30 C
Short version: protein stability index at least 0.7 is Yes, less is No.

These solved cases illustrate the format of a correct answer.
• CRESNLKLIVSG [ARR2 C-terminal 12 aa] = No
• KPLSKPAPDLDY [CWC25 C-terminal 12 aa] = No

[in] Hello, I need to know if FFTIEKYSVRRS [YOL013W-A C-terminal 12 aa] has measured protein stability index not below 0.7. Thanks!
[out] Yes

[in] Hello, I need to know if YMKHLLECRSLW [PCD1 C-terminal 12 aa] has measured protein stability index not below 0.7. Thanks!
[out] Yes
